These measurements were taken from the supplement of paper PMC11451515.

System: NOMO1
assay.method.text: cell viability relative to DMSO control; higher = less cytotoxic
experimental.setup: RPMI 5 mM glucose + 10% FBS; 48 h; 1.71 µM
Hi there, I'd appreciate the recorded cell viability for every entry that follows.

Input: State the recorded cell viability for this entry: CC(=O)OC[C@H]1O[C@@H]([S-])[C@H](OC(C)=O)[C@@H](OC(C)=O)[C@@H]1OC(C)=O.CCP(CC)CC.[Au+]
Output: 89.8%

Input: Another: CCOC(=O)[C@@]1(CCCCCCOc2ccc(Cl)cc2)CO1
Output: 106%

Input: Another: Cc1ccc([N+](=O)[O-])cc1[S+](=O)([O-])N(C)/N=C/c1cnc2ccc(Br)cn12
Output: 5.79%

Input: Another: COc1cc2ncn(-c3cc(OCc4ccccc4[S+](C)(=O)[O-])c(C#N)s3)c2cc1OC
Output: 88.8%

Input: Another: CN(C)C1=CC(=CC=C1)C\2=C\3C(=O)N(NC3=C/C(=O)N2C)C4=CC=CC=C4Cl
Output: 19.7%

Input: Another: NC(=O)Nc1sc(-c2ccc(F)cc2)cc1C(N)=O
Output: 92.4%

Input: Another: c1ccc2c(Cc3c[nH]c4ccccc34)c[nH]c2c1
Output: 89.8%

Input: Another: N[C@H]2CN(CC12CC1)c3c(F)cc4c(c3Cl)[N@@](C=C(C4=O)C(=O)O)C5C[C@H]5F (some centres undefined)
Output: 82%

Input: Another: C=C1C(=O)OC(CCCCCCCC)C1C(=O)O (centres undefined)
Output: 132%

Input: Another: O=C(CS(=O)Cc1ccco1)NC/C=C\COc1cc(CN2CCCCC2)ccn1 (centres undefined)
Output: 89.3%

Input: Another: OC[C@H]1O[C@H](C[C@@H]1O)N2\C=C(F)/C(=O)NC2=O
Output: 72.7%

Input: Another: NC(=O)[C@H]1CCS[C@@H]2C[C@]3(CCCN3C(=O)Cc3ccc(NC(=O)COc4ccc(Cl)cc4Cl)cc3)C(=O)N12
Output: 103%

Input: Another: COc1cc(Nc2c(C#N)cnc3cc(OCCCN4CCN(C)CC4)c(OC)cc23)c(Cl)cc1Cl
Output: 106%

Input: Another: O=C1\C=C/C=C2/[C@H]3CNC[C@H](C3)CN12
Output: 123%

* * *

Test system: P12-Ichikawa
assay.method.text: cell viability relative to DMSO control; higher = less cytotoxic
experimental.setup: RPMI 5 mM glucose + 10% dialyzed FBS; 48 h; 0.569 µM
Hi there, I'd appreciate the recorded cell viability for every entry that follows.
Give the number; % is assumed, so skip it.

Input: State the recorded cell viability for this entry: C[C@H]1C[C@H]2[C@@H]3CC[C@](O)(C(=O)CO)[C@@]3(C)C[C@H](O)[C@@H]2[C@@]\4(C)/C=C\C(=O)\C=C14
Output: 53.3

Input: Another: C[C@@H]1CCN(C(=O)CC#N)C[C@@H]1N(C)c1ncnc2[nH]ccc12
Output: 78.7

Input: Another: CC(C)(F)C[C@H](N[C@@H](c1ccc(-c2ccc([S+](C)(=O)[O-])cc2)cc1)C(F)(F)F)C(=O)NC1(C#N)CC1
Output: 111

Input: Another: CN(C)C1=CC(=CC=C1)C\2=C\3C(=O)N(NC3=C/C(=O)N2C)C4=CC=CC=C4Cl
Output: 102

Input: Another: CCN1C[C@H](C)[N]2C(=C(O)C3=C2\C(=N/N(CC4=CC=C(F)C(=C4)Cl)C3=O)C(=O)NC)C1=O
Output: 117

Input: Another: COc1cccc2c1C(=O)c1c(O)c3c(c(O)c1C2=O)C[C@@](O)(C(=O)CO)C[C@@H]3O[C@H]1C[C@H](N)[C@H](O[C@H]2CCCCO2)[C@H](C)O1
Output: 97.5

Input: Another: Cc1ccc(C(=O)Nc2cccc(C(F)(F)F)c2)cc1-c1ccc2nc(NCCN3CCOCC3)ncc2c1
Output: 103

Input: Another: CC(C)(S)[C@@H](N)C(=O)O
Output: 107

Input: Another: O=C([O-])C[C@H](O)C[C@H](O)/C=C/c1c(C2CC2)nc2ccccc2c1-c1ccc(F)cc1
Output: 115

Input: Another: C[C@@H]1O[C@@H](O[C@H]2C[C@@H](O)[C@]3(CO)[C@H]4[C@H](O)C[C@]5(C)[C@@H](C6=CC(=O)OC6)CC[C@]5(O)[C@@H]4CC[C@]3(O)C2)[C@H](O)[C@H](O)[C@H]1O
Output: 9.86

Input: Another: CCc1cc2c(cc1N1CCC(N3CCOCC3)CC1)C(C)(C)c1[nH]c3cc(C#N)ccc3c1C2=O
Output: 125

Input: Another: CCN(CCO)CCCOc1ccc2c(Nc3cc(CC(=O)Nc4cccc(F)c4)[nH]n3)ncnc2c1
Output: 20.7
